- target-of-assay: Catechol O-methyltransferase (Rattus norvegicus)
- method-summary: Percent inhibition of Catechol O-methyltransferase activity in rat brain at dose of 30 mg/kg determined at 6 h after its administration
- Type: organism-based
- Parameters: dose 30 mg/kg
property-label: inhibition (%)
Could you give me the number in %? Just the number is fine.

Below are worked cases with known answers.
{"columns": ["compound", "reported-measurement"],
 "data": [
  ["O=[N+]([O-])c1cc(CCc2ccccc2)cc(O)c1O", 10],
  ["Cc1ccccc1CC(=O)c1cc(O)c(O)c([N+](=O)[O-])c1", 33],
  ["CC(=O)Oc1cc(C(=O)Cc2ccc([N+](=O)[O-])cc2)cc([N+](=O)[O-])c1OC(C)=O", 0]
]}

Task: Would you mind telling me what inhibition value was observed for O=C(Cc1ccc2ccccc2c1)c1cc(O)c(O)c([N+](=O)[O-])c1 ?
Result: 17

Task: Item under review: O=C(CC1CCCCC1)c1cc(O)c(O)c([N+](=O)[O-])c1 . Reported inhibition?
Result: 39

Task: What value of inhibition has been reported for the following compound? O=C(Cc1ccc(-c2ccccc2)cc1)c1cc(O)c(O)c([N+](=O)[O-])c1
Result: 28

Task: So what's the measured inhibition for this one? O=c1oc(-c2cc(O)c(O)c([N+](=O)[O-])c2)cc2ccccc12
Result: 29

Task: Find the recorded inhibition belonging to CC(=O)Oc1cc(C(=O)C(Cc2ccccc2)c2ccccc2)cc([N+](=O)[O-])c1OC(C)=O (stereo not given) and report it.
Result: 44

Task: Dear colleague, I am looking for the recorded inhibition of the following compound: O=C(Cc1ccc(Cl)cc1)c1cc(O)c(O)c([N+](=O)[O-])c1
Result: 12

Task: May I ask what inhibition has been recorded for O=C(Cc1ccccc1C(=O)O)c1cc(O)c(O)c([N+](=O)[O-])c1 ?
Result: 34

Task: Fill in the blank: the reported inhibition of CC(=O)Oc1cc(C(=O)C2(c3ccccc3)CCCCC2)cc([N+](=O)[O-])c1OC(C)=O is ____.
Result: 19

src = ChEMBL document CHEMBL1135708
